- TARGET OR TEST SYSTEM: talin-1 head domain (THD1) (Homo sapiens)
- Construct: pCoofy17-THD1 (1-405) constructs were transformed into Rosetta2(DE3) cells; His-SUMO (N, cleaved yes); made in house; host or cells: E. coli Rosetta2(DE3)
- Sequence (Q9Y490 1-405): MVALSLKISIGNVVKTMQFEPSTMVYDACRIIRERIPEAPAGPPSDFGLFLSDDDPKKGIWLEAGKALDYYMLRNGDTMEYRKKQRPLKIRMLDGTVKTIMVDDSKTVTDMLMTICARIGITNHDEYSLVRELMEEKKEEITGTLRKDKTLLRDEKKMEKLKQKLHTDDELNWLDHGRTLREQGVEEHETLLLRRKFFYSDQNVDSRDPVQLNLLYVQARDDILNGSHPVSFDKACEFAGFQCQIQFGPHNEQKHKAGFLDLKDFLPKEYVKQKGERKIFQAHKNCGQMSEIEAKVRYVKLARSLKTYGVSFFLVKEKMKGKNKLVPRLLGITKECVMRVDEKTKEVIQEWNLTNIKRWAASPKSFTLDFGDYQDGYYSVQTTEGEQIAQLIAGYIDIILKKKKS
- PROTOCOL TEXT: Microscale thermophoresis (MST), talin-1 head domain
- Assay type: binding
- ASSAY CONTEXT: Atto488-labeled β5 cytoplasmic tail 50–200 nM, 20 mM Tris-HCl pH 7.5, 200 mM NaCl, 1 mM TCEP, 0.05% Tween-20, mean±s.d., n≥5
Ends that are not written are not given here.

>  <ORDERED RESIDUES>
DRREFAKFQSERSRARYEMASNPLYRKPISTHTVDFAFNKFNKSYNGSVD [β5]

>  <TARGET OR TEST SYSTEM>
talin-1 head domain (THD1) (Homo sapiens)

>  <SCALE UNIT>
µM

>  <Kd>
41.7

$$$$

* * *

- TARGET OR TEST SYSTEM: Numb-PTB (20-175) (Homo sapiens, UniProt P49757)
- Construct: A pETNKI-6xhis-3C-Numb-PTB (20-175) construct was expressed in Rosetta2 (DE3) cells; 6xHis-3C (N, cleaved yes); made in house; host or cells: E. coli Rosetta2 (DE3)
- Sequence (P49757 20-175): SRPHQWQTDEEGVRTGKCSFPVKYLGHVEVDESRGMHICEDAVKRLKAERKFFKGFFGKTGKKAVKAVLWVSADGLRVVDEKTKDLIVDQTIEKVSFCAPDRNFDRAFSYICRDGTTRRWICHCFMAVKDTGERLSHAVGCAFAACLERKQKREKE
- PROTOCOL TEXT: Microscale thermophoresis (MST), Numb
- Format: binding
- ASSAY CONTEXT: MST; Atto488-labeled β5 cytoplasmic tail 50–200 nM; 20 mM Tris-HCl pH 7.5, 200 mM NaCl, 1 mM TCEP, 0.05% Tween-20; mean±s.d., n≥5
pKd: −log10 of the molar value. Ends that are not written are not given here.

>  <ORDERED RESIDUES>
DRREFAKFQSERSRARYEMASNPLYRKPISTHTVDFAFNKFNKSYNGSVD [β5]

>  <pKd>
4.55

$$$$
